Assignment: determine reported normalised response for the given molecules.
# System: CAL-51
# test: normalised response (% of control), CellTiter-Glo; higher = more viable cells (100 = DMSO, 0 = benzethonium chloride kill control)
# assay context: incubation time: 72 h
One number for each entry, in %.

See these solved cases before continuing.
INSERT INTO results (molecule, observed_measurement) VALUES
  ('CN[C@@H](C)C(=O)N[C@H]1CN(C(=O)CC(C)C)CC[C@H]2CC[C@@H](C(=O)NC(c3ccccc3)c3ccccc3)N2C1=O [AT-406] (1000 nM)', 98.2),
  ('CN(Cc1cnc2nc(N)nc(N)c2n1)c1ccc(C(=O)N[C@@H](CCC(=O)O)C(=O)O)cc1 [Methotrexate] (50 nM)', 63.7),
  ('CC1(C)CCC(c2ccc(Cl)cc2)=C(CN2CCN(c3ccc(C(=O)NS(=O)(=O)c4ccc(N[C@H](CCN5CCOCC5)CSc5ccccc5)c(S(=O)(=O)C(F)(F)F)c4)cc3)CC2)C1 [Navitoclax] (10 nM)', 115);

Below is a list of molecules. For each, state its recorded normalised response.
1. CC(=O)[C@]1(O)Cc2c(O)c3c(c(O)c2[C@@H](O[C@H]2C[C@H](N)[C@H](O)[C@H](C)O2)C1)C(=O)c1ccccc1C3=O [Idarubicin] (100 nM)
2. CC(C)(C)NC(=O)[C@H]1CC[C@H]2[C@@H]3CC[C@H]4NC(=O)C=C[C@]4(C)[C@H]3CC[C@]12C [Finasteride] (1000 nM)

Output:
[42.6, 94.6]

Below is a list of molecules. For each, state its recorded normalised response.
1. O=C(CCCCCCC(=O)Nc1ccccc1)NO [Vorinostat] (10 nM)
2. CNC(=O)c1ccccc1Sc1ccc2c(/C=C/c3ccccn3)n[nH]c2c1 [Axitinib] (10 nM)
3. CN(C)C(=N)NC(=N)N [Metformin] (10000 nM)
4. Cn1cc(C2=C(c3cn(C4CCN(Cc5ccccn5)CC4)c4ccccc34)C(=O)NC2=O)c2ccccc21 [Enzastaurin] (10 nM)

Output:
117
121
75.2
92.2

Below is a list of molecules. For each, state its recorded normalised response.
1. C=CCn1c(=O)c2cnc(Nc3ccc(N4CCN(C)CC4)cc3)nc2n1-c1cccc(C(C)(C)O)n1 [MK1775] (1 nM)
2. Cc1cn(-c2cc(NC(=O)c3ccc(C)c(Nc4nccc(-c5cccnc5)n4)c3)cc(C(F)(F)F)c2)cn1 [Nilotinib] (10 nM)
3. CO[C@@]12[C@H](COC(N)=O)C3=C(C(=O)C(C)=C(N)C3=O)N1C[C@@H]1N[C@@H]12 [Mitomycin C] (10 nM)
4. CCn1c(C(=O)N(C2CC2)C2CC2)cc2c3c(ncn3C)c(Nc3cc(C)n(C)n3)nc21 (1 nM)
5. Cc1cn(-c2cc(NC(=O)c3ccc(C)c(Nc4nccc(-c5cccnc5)n4)c3)cc(C(F)(F)F)c2)cn1 [Nilotinib] (1 nM)
6. C=CCn1c(=O)c2cnc(Nc3ccc(N4CCN(C)CC4)cc3)nc2n1-c1cccc(C(C)(C)O)n1 [MK1775] (10 nM)

Output:
1. 114
2. 85.8
3. 105
4. 135
5. 98.1
6. 121

---

# Tested on: MDA-MB-468
# test: normalised response (% of control), CellTiter-Glo; higher = more viable cells (100 = DMSO, 0 = benzethonium chloride kill control)
# assay context: incubation time: 72 h
measured parameter: normalised response (%)
Answers are plain numbers, in %.

See these solved cases before continuing.
INSERT INTO results (molecule, target_of_assay, measured_parameter, observed_measurement) VALUES
  ('CCNC(=O)CCC/C=C\C[C@@H]1[C@@H](/C=C/[C@@H](O)CCc2ccccc2)[C@H](O)C[C@@H]1O [Bimatoprost] (55 nM)', 'MDA-MB-468', 'normalised response', 94),
  ('Nc1ccn([C@@H]2O[C@H](CO)[C@@H](O)C2(F)F)c(=O)n1 [Gemcitabine] (10 nM)', 'MDA-MB-468', 'normalised response', 52.2),
  ('O=C(O)CNC(=O)c1c(O)c2ccccc2n(Cc2ccccc2)c1=O [IOX-2] (500 nM)', 'MDA-MB-468', 'normalised response', 90.4),
  ('CNC(=O)c1ccccc1Sc1ccc2c(/C=C/c3ccccn3)n[nH]c2c1 [Axitinib] (100 nM)', 'MDA-MB-468', 'normalised response', 93.8),
  ('CC(C)(C)c1nc(-c2cccc(NS(=O)(=O)c3c(F)cccc3F)c2F)c(-c2ccnc(N)n2)s1 [Dabrafenib] (25 nM)', 'MDA-MB-468', 'normalised response', 94.7);

Below is a list of molecules. For each, state its recorded normalised response.
1. CC(C)C[C@H](NC(=O)[C@@H](COC(C)(C)C)NC(=O)[C@H](Cc1ccc(O)cc1)NC(=O)[C@H](CO)NC(=O)[C@H](Cc1c[nH]c2ccccc12)NC(=O)[C@H](Cc1cnc[nH]1)NC(=O)[C@@H]1CCC(=O)N1)C(=O)N[C@@H](CCCNC(=N)N)C(=O)N1CCC[C@H]1C(=O)NNC(N)=O [Goserelin] (100 nM)
2. CC(=O)[C@]1(O)Cc2c(O)c3c(c(O)c2[C@@H](O[C@H]2C[C@H](N)[C@H](O)[C@H](C)O2)C1)C(=O)c1ccccc1C3=O [Idarubicin] (10 nM)
3. CC(C)n1cnc2c(NCCc3ccc(O)cc3)nc(-c3csc4ccccc34)nc21 [StemRegenin 1] (100 nM)
4. Cc1cc(Nc2nc(N[C@@H](C)c3ncc(F)cn3)ncc2Cl)[nH]n1 [AZD1480] (10 nM)
5. CC1(COc2ccc3c(c2)ncn3-c2ccc3cccc(N4CCC(N)CC4)c3n2)COC1 [Crenolanib] (100 nM)

Output:
[102, 92.9, 93.8, 104, 107]
